# normalized growth per record follows
Experiment: chemical genetic growth profiling, strain panel (AID 1159580);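 further: tested at 20 µM; growth read once vehicle control cultures reached saturation at 30 °C; 1 = growth at the plate median or of vehicle wells; lower values mean less growth of the strain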
Conditions: S. cerevisiae deletion strains, growth OD, locus YOL006C, strain TOP1, active compounds read low
In all, about 5,500 compounds went through this assay and about 2,000 (36%) were called active. Not shown: some 18% with an inconclusive outcome. Some of the results follow.

- Compound: "CC1(C)CCC(C(C)(C)O)CC1"
  normalized growth: 0.984
- Compound: "COC(=O)[C@H]1[C@H]2C[C@@H]3c4[nH]c5cc(OC)ccc5c4CCN3C[C@H]2C[C@@H](OC(=O)c2cc(OC)c(OC)c(OC)c2)[C@@H]1OC"
  normalized growth: 0.989
- Compound: "COc1nc(N)nc(SC)n1"
  normalized growth: 0.978
- Compound: "Cc1cccc2nc(-c3ccccc3)oc(=O)c12"
  normalized growth: 0.801
- Compound: "C[C@@H]1CC2C3CCC4=CC(=O)C=C[C@]4(C)[C@@]3(F)[C@@H](O)C[C@]2(C)[C@@]1(O)C(=O)COP(=O)(O)O (some centres undefined)"
  normalized growth: 1.01
- Compound: "COc1ccc2c(c1O)-c1c(OC)c(OC)cc3c1[C@H](C2)N(C)CC3"
  normalized growth: 1.21
- Compound: "COc1c(C2COc3cc4c(cc3C2=O)CC(O)C(C)(C)O4)ccc2c1CCC(C)(C)O2 (centres undefined)"
  normalized growth: 1.06
- Compound: "C[C@@]12C(=O)OC(=O)[C@]1(C)C1CCC2O1"
  normalized growth: 0.835
- Compound: "O=C(O)c1cc(C(F)(F)F)ccc1F"
  normalized growth: 0.987

====

Each entry below lists one item and its recorded normalized growth value.
Assay: chemical genetic growth profiling, strain panel (AID 1159580);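 further: tested at 20 µM; growth read once vehicle control cultures reached saturation at 30 °C; 1 = growth at the plate median or of vehicle wells; lower values mean less growth of the strain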
Settings: S. cerevisiae deletion strains, growth OD, locus YJL128C, strain PBS2, active compounds read low
The campaign covered roughly 5,500 compounds. About 2,000 (36%) were called active. Another 18% or so got no clear call; they are omitted. Some of the results follow.

- Compound: "CCCCCc1ccc(S(=O)(=O)Nc2ccc3c(c2)C(=O)OC3)cc1"
  normalized growth: 0.944
- Compound: "COc1ccccc1C(C[N+](=O)[O-])c1c(N)n(C)c(=O)n(C)c1=O (stereo unspecified)"
  normalized growth: 0.941
- Compound: "OC(c1ccc(C(F)(F)F)cc1)c1cccc(C(F)(F)F)c1 (stereo unspecified)"
  normalized growth: 0.942
- Compound: "N/C(=N/OC(=O)c1ccc(Cl)cc1)c1ccc(F)cc1F"
  normalized growth: 0.977
- Compound: "CCC1CCC(C)N(C(=S)Nc2ccc(Br)cc2C)C1 (stereo unspecified)"
  normalized growth: 0.927
- Compound: "COc1cc(C(=O)Oc2c(Cl)cc(Cl)cc2C=Nc2cccc([N+](=O)[O-])c2)cc(OC)c1OC"
  normalized growth: 0.921
- Compound: "O=C(CO/N=C\\c1ccc(Cl)cc1Cl)NNC(=S)Nc1cc(Cl)ccc1Cl"
  normalized growth: 0.992
- Compound: "O=C1/C(=C/c2c(F)cccc2Cl)Cc2ccccc21"
  normalized growth: 0.929
- Compound: "CCOC(=O)c1c(N=Cc2cc(Br)c(Br)cc2O)sc2c1CCCC2"
  normalized growth: 0.959
- Compound: "O=C(CCSc1cccs1)Nc1cccc(C(F)(F)F)c1"
  normalized growth: 0.865
- Compound: "CCCC1c2ccsc2CCN1C(=S)Nc1ccc(Cl)cc1Cl (stereo unspecified)"
  normalized growth: 0.946
- Compound: "Cc1cc(C(=O)O/N=C(/N)c2ccc(C(C)(C)C)cc2)no1"
  normalized growth: 0.938
- Compound: "CCOC(=O)CCc1cc(N=Cc2cc(Br)ccc2O)c(O)c(N=Cc2cc(Br)ccc2O)c1"
  normalized growth: 0.942
- Compound: "CC12CC[C@@H](O)CC1=CC[C@@H]1C2CCC2(C)C(=O)CC[C@@H]12 (stereo partly specified)"
  normalized growth: 0.973
- Compound: "COc1cc(C(=O)Oc2c(Cl)cc(Cl)cc2C=Nc2cccc(C(F)(F)F)c2)cc(OC)c1OC"
  normalized growth: 0.917
- Compound: "NC(=NC(=O)c1ccc(Cl)cc1)c1cccs1"
  normalized growth: 0.921

FYI, the data here is from PubChem BioAssay AID1159580.
